System: A549
method_notes: Cytotoxic potentiation of Topotecan (TP) by the compound in human lung carcinoma A549 cell line
Type: functional, cell-based
Answer each item with its documented pIC50.
Numbers only, as −log10 of the molar value.

O=C1NCCc2c(-c3ccc(Cn4cccc4)cc3)[nH]c3cccc1c23
7.92

Query CC[C@@]1(O)C(=O)OCc2c1cc1n(c2=O)Cc2cc3c(CN(C)C)c(O)ccc3nc2-1 yields pIC50 of 7.62

###

Answer each item with its documented IC50.
Tested on: SW-620
method_notes: Cytotoxic potentiation of Topotecan (TP) by the compound in human colon carcinoma SW620 cell line
Assay type: functional, cell-based
One number for each entry, in nM.

O=C1NCCc2c(-c3ccc(Cn4cccc4)cc3)[nH]c3cccc1c23
1.8

Query CC[C@@]1(O)C(=O)OCc2c1cc1n(c2=O)Cc2cc3c(CN(C)C)c(O)ccc3nc2-1 yields IC50 of 3.2

###

target_desc: Poly [ADP-ribose] polymerase 1 (Homo sapiens, UniProt P09874)
Sequence (P09874 whole entry): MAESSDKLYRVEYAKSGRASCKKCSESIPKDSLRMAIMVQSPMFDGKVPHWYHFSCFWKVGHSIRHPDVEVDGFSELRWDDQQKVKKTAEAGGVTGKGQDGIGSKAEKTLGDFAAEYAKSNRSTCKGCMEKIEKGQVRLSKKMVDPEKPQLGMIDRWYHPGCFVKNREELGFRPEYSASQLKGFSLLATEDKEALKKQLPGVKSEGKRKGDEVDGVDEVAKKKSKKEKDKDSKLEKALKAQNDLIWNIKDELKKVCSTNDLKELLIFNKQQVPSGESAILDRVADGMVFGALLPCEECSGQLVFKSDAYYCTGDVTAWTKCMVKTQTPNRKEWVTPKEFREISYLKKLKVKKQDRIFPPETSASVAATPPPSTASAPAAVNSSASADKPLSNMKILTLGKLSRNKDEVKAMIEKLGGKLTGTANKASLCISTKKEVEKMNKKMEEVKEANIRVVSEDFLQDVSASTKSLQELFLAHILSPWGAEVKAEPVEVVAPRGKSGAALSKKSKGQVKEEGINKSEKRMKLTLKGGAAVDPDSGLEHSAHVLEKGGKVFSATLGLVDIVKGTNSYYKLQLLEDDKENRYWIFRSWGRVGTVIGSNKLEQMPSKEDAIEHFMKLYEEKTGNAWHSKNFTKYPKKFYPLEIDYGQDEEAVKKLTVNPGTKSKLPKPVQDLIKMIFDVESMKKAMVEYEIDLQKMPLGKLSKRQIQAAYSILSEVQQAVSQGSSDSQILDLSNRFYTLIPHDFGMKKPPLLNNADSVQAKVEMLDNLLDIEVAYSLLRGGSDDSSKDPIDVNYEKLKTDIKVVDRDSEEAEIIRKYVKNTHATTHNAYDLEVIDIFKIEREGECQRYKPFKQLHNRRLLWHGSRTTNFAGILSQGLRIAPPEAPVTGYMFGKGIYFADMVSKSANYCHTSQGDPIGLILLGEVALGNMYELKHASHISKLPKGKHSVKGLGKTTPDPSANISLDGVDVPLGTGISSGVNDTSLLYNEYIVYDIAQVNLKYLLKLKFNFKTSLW
quantity_measured: pKi
One number for each entry, as −log10 of the molar value.

Query O=C1NCCc2c(-c3ccc(Cn4cccc4)cc3)[nH]c3cccc1c23 yields pKi of 8.22

###

target_desc: Poly [ADP-ribose] polymerase 1 (Homo sapiens)
quantity_measured: pKi
Answers are plain numbers, as −log10 of the molar value.

Nc1cccc(-c2[nH]c3cccc4c3c2CCNC4=O)c1
8.15
COc1[nH]c2cccc3c2c1CCNC3=O
8.00
O=C1NCCc2c(C(c3ccccc3)c3ccccc3)[nH]c3cccc1c23
7.64
O=C1NCCc2c(-c3ccc[nH]3)[nH]c3cccc1c23
8.10
O=C1NCCc2c(-c3cccc(C(F)(F)F)c3)[nH]c3cccc1c23
8.22

Record pKi per entry; entries follow.
1. CN(C)Cc1cccc(-c2[nH]c3cccc4c3c2CCNC4=O)c1
2. COc1ccc(-c2[nH]c3cccc4c3c2CCNC4=O)cc1
3. N#Cc1[nH]c2cccc3c2c1CCNC3=O
4. O=C1NCCc2c(O)[nH]c3cccc1c23

# output
1: 8.10; 2: 8.22; 3: 7.96; 4: 6.43

Numbers sourced from ChEMBL document CHEMBL1136008.
